I'd be grateful if you could share measured Ratio IC50 for these entries.
System: Zea mays
PROTOCOL SUMMARY: Selectivity for IC50 of maize histone deacetylase 1A over IC50 of maize histone deacetylase 1B
Give bare numbers.

Recorded Ratio IC50, per entry:
SMILES ENTRY | TARGET UNDER TEST | EXPERIMENTAL RESULT
Cn1cc(/C=C/C(=O)c2cc(F)cc(F)c2)cc1/C=C/C(=O)NO | Zea mays | 11.2
Cn1cc(/C=C/C(=O)c2cccc3ccccc23)cc1/C=C/C(=O)NO | Zea mays | 33
Cn1cc(/C=C/C(=O)c2cc(F)ccc2F)cc1/C=C/C(=O)NO | Zea mays | 20.8
Cn1cc(/C=C/C(=O)c2ccco2)cc1/C=C/C(=O)NO | Zea mays | 16.4
Cn1cc(/C=C/C(=O)c2cccs2)cc1/C=C/C(=O)NO | Zea mays | 1.6
Cn1cc(/C=C/C(=O)c2ccccc2Cl)cc1/C=C/C(=O)NO | Zea mays | 32
Cn1cc(/C=C/C(=O)c2ccc(-c3ccccc3)cc2)cc1/C=C/C(=O)NO | Zea mays | 14.4

Ask: Hello, please tell me recorded Ratio IC50 for this one: `Cn1cc(/C=C2\CCCc3ccccc3C2=O)cc1/C=C/C(=O)NO`
Result: 2.6
